Biological target: T1, human neuropeptide Y2 receptor (human, UniProt P49146 1-381)
T1 sequence (looked up): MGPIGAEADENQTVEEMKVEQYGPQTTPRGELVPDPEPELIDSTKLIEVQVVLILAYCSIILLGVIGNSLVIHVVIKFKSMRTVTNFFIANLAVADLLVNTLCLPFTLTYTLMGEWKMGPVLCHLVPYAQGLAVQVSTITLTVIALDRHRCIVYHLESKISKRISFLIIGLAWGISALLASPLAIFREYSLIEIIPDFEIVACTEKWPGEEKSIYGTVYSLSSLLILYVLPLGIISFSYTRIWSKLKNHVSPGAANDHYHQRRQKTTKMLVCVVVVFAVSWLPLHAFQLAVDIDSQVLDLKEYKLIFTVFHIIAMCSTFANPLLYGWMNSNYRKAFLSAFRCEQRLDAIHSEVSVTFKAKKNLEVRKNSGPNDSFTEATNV
Experiment: cell-based or functional assay
# EC50, CreLuc luciferase reporter assay, hNPY2R 100% hP listing for each entry below
PROPERTY_NAME: EC50, CreLuc luciferase reporter assay, hNPY2R 100% hP (nM)

| BINDER | RESULT_VALUE |
| --- | --- |
| YXEGTFTSDYSIXLERQAQXAFVRHLINKXTRQRY (Aib at positions 2, 13, 20 and 30; Lys 29 epsilon-amino group carries C20DA-gGlu-gGlu-gGlu-gGlu-gGlu-gGlu-eLys; C-terminal amide) [Compound 171] | 95.3 |
| YXEGTFTSDYSIXLDKQAQXAFVRHLLNKXTRQRY (Aib at positions 2, 13, 20 and 30; Lys 29 epsilon-amino group carries C18DA-gGlu-gGlu-gGlu-gGlu-gGlu-gGlu-eLys; C-terminal amide) [Compound 173] | 55.5 |
| YXEGTFTSDYSIXLEKQAQXAFVRHLINKXTRQRY (Aib at positions 2, 13, 20 and 30; Lys 29 epsilon-amino group carries C20DA-gGlu-gGlu-gGlu-gGlu-gGlu; C-terminal amide) [Compound 176] | 457 |
| YXEGTFTSDYSIXLEKQAQXAFVRHLINKWTRQRY (Aib at positions 2, 13 and 20; Lys 29 epsilon-amino group carries C18DA-gGlu-gGlu-gGlu-gGlu-gGlu-gGlu-eLys; C-terminal amide) [Compound 172] | 136 |
